Every entry's value here was drawn from ChEMBL document CHEMBL1145691.

Tested on: Mus musculus
Assay: Hypoglycemic activity in normal ddY mouse at 5 mg/kg, ip assessed as blood glucose level per 100 mL blood after 4 hrs
Type: functional
Conditions: route intraperitoneal
Reported Activity values for a set of compounds
Record the result as number plus unit.

Sample answers from the record:
Provide Mus musculus Activity reading for `COc1ccc(/C=C/C(=O)O[C@@H]2[C@H](O)[C@@H](O[C@@H]3O[C@@H](C)[C@H](O[C@@H]4OC[C@@H](O[C@@H]5O[C@H](CO)[C@H](O)[C@H](O)[C@H]5O)[C@H](O)[C@H]4O)[C@@H](O)[C@H]3O)[C@H](OC(=O)[C@]34CCC(C)(C)C[C@@H]3C3=CC[C@@H]5[C@@]6(C)C[C@H](O[C@@H]7O[C@H](CO)[C@@H](O)[C@H](O)[C@H]7O)[C@H](O)[C@@](C)(C(=O)O)[C@@H]6CC[C@@]5(C)[C@]3(CO)CC4)O[C@@H]2C)cc1` .
199 mg/dL

Provide Mus musculus Activity reading for COc1ccc(/C=C/C(=O)O[C@@H]2[C@H](O)[C@@H](O[C@@H]3O[C@@H](C)[C@H](O[C@@H]4OC[C@@H](O[C@@H]5O[C@H](CO)[C@H](O)[C@H](O)[C@H]5O)[C@H](O)[C@H]4O)[C@@H](O)[C@H]3O)[C@H](OC(=O)[C@]34CCC(C)(C)C[C@@H]3C3=CCC5[C@@]6(C)C[C@H](O[C@@H]7O[C@H](CO)[C@@H](O)[C@H](O)[C@H]7O)[C@H](O)[C@@](C)(C(=O)O)[C@@H]6CC[C@@]5(C)[C@]3(CO)CC4)O[C@@H]2C)cc1OC (stereo partly drawn) .
137 mg/dL

Now for a further compound.
Provide Mus musculus Activity reading for `COc1cc(/C=C/C(=O)OC[C@@]2(O[C@H]3O[C@H](COC(C)=O)[C@@H](OC(=O)/C=C/c4ccc(O)c(OC)c4)[C@H](O[C@@H]4O[C@H](COC(C)=O)[C@@H](O[C@@H]5O[C@H](CO)[C@@H](O)[C@H](O)[C@H]5O)[C@H](O)[C@H]4O)[C@H]3O[C@@H]3O[C@H](CO)[C@@H](O)[C@H](O)[C@H]3O)O[C@H](CO)[C@@H](O)[C@@H]2OC(=O)c2ccccc2)ccc1O` .
197 mg/dL
